Below: a set of entries, each annotated with reported z-score.
- Assay Overview: MELAS cybrid and Rieske KO viability enhancers – cell-based, MELAS cybrids, Rieske KO mouse fibroblasts, CellTiter-Glo, primary screen (AID 1508586);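 note: test concentration not given here; z relative to plate mean and SD of compound and empty wells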
- Conditions: Rieske KO mouse fibroblast survival, low glucose, CellTiter-Glo 72 h
*1 amine or outer side, *2 acyl side, *3 side chain or, on linkers, in order; H or OH if unused. Where a SMILES comes first, the peptide text is derived from it. Bridges are numbered along the chain shown (N, C = ends). [ ]: non-standard residue; d: D form. The star is where a group is joined. ξ: configuration not given here. pTerphenylCO(4''-OnC5H11) = CCCCCOc1ccc(-c2ccc(-c3ccc(C(=O)*)cc3)cc2)cc1; ξOrn(4,5-diOH) = O=C(C(CC(O)C(O)N[*:3])N[*:1])[*:2]; ξhTyr(βξ-OH,γξ-OH) = NC(C(=O)O)C(O)C(O)c1ccc(O)cc1; ξPro(3ξ-OH,4ξ-Me) = CC1CNC(C(=O)O)C1O; Hyp = O=C(O)[CH]1C[CH](O)CN1
Number only, no unit.

Some compounds with recorded z-score:
CCCn1ncc(-c2ccnc(NCc3cc(CC)no3)n2)c1C = -0.0436
O=C(Nc1n[nH]c(Cc2ccccc2)n1)N1CCN(c2ncncn2)CC1 = 4.03
NC(=O)Nc1cc(-c2cccc(F)c2)sc1C(=O)NC1CCCNC1 (centres undefined) = -2.7
CC1C[C@@H]2[C@@H](C(O)C[C@@]3(C)[C@H]2CC[C@@]3(O)C(=O)CO)[C@@]2(C)C=CC(=O)C=C12 (some centres undefined) = -0.516
CC1CC[C@H]2C(C)C(O)O[C@H]3O[C@@]4(C)CC[C@@H]1[C@]32OO4 (some centres undefined) = 0.102
CCCCCOc1ccc(-c2ccc(-c3ccc(C(=O)NC4CC(O)C(O)NC(=O)C5C(O)C(C)CN5C(=O)C(C(C)O)NC(=O)C(C(O)C(O)c5ccc(O)cc5)NC(=O)C5CC(O)CN5C(=O)C(C(C)O)NC4=O)cc3)cc2)cc1 (stereo not drawn) ({pTerphenylCO(4''-OnC5H11)}-[ξOrn(4,5-diOH)]T[Hyp][ξhTyr(βξ-OH,γξ-OH)]T[ξPro(3ξ-OH,4ξ-Me)]; lactam 1-C; configuration not given here) = -0.136
COc1cc(F)c(F)c(Nc2ccc(I)cc2F)c1NS(=O)(=O)C1(CC(O)CO)CC1 (centres undefined) = -0.645
CNC1CCC(c2ccc(Cl)c(Cl)c2)c2ccccc21 (centres undefined) = -0.231

Query Cc1cc(OCCCS(C)(=O)=O)cc(C)c1-c1cccc(COc2ccc3c(c2)OCC3CC(=O)O)c1 (centres undefined) yields z-score of 0.0224

Measured z-score, C=C1CCC(O)CC1=CC=C1CCC[C@]2(C)C(C(C)C=CC(C)C(C)C)CC[C@@H]12 (some centres undefined) : -0.174

Lookup result for COC1CC2CCC(C)[C@](O)(O2)C(=O)C(=O)N2CCCC[C@H]2C(=O)OC(C(C)CC2CCC(n3cnnn3)C(OC)C2)CC(=O)C(C)C=C(C)C(O)C(OC)C(=O)C(C)CC(C)C=CC=CC=C1C (some centres undefined) ; measured z-score: 2.04

Record COc1ccc2[nH]cc(CCC(=O)O)c2c1 . Reported z-score: -0.35

# z-score (compound: COC(=O)C1=COC(OC2OC(CO)C(O)C(O)C2O)[C@H]2C(CO)=CC[C@H]12 (some centres undefined) ) is -0.0973
